Ref: patent US20180009892A1

- tested.on: T1, human ROR1 extracellular domain (ECD) protein (human, UniProt Q01973 30-406)
- T1 construct: also called hROR1-ECD; human ROR1-ECD
- measurement.protocol: competitive phage ELISA: soluble ROR1 against ROR1-coated plate
pIC50: −log10 of the molar value.
Assign 1 whenever pIC50 does not fall below 9; assign -1 whenever it does.

# binder, assigned.category
data = [
    ("P601-100 (scFv, V domains shown) VH: EVQLVQSGGGVVQPGGPLRLSCAASGFTFSSYSMNWVRQAPGKGLEWVSSISSSSSYIYYADSVKGRFTISRDNAKNSLYLQMNSLRAEDTAVYYCARGLGGWTHDAFDIWGQGTMVTVSS VL: QSALTQPASVSGSPGQSITISCTGTSRDVGGYDYVSWYQQYPGNAPKLMIYDVSRRPSGVSHRFSASKSGNTASLTISGLQTEDEADYYCSSYTSSSTRVFGGGTKVTVL", -1),
    ("P601-66 (scFv, V domains shown) VH: QVQLVQSGAEVKEPGASVKVSCKASGYTFRNSGITWVRQAPGQGLEWMGWINPNSGGAMYVDNFQGRATMTRDTSINTAYMELRSLSSDDTAVYYCARGMADLIDVFDIWGQGTLVTVSS VL: TQPALTQPASVSGSPGQSITISCTGTSSDFGDYDYVSWYQQHPGKAPKLMIYDVSDRPSGVSNRFSGSKSGNTASLTISGLQAEDEADYFCSSFTTSSTLVFGGGTKLTVL", -1),
    ("P601-109 (scFv, V domains shown) VH: QMQLVQSGGDLVQPGGSLRLSCAASGFTFSSYSMNWVRQAPGKGLEWVSSISSSSSYIYYADSVKGRFTISRDNAKNSLYLQMNSLRAEDTAVYYCARGLGGWTHDAFDIWGQGTTVTVSS VL: QSALTQPASVSGSPGQSITISCTGTSSDVGGYNYVSWYQQHPGKAPKLLIYEVSQRPSGVPDRFSGSKSGNTASLTVSGLQAEDEADYYCSSYAGDRDVFGTGTQLTVLS", 1),
    ("P601-65 (scFv, V domains shown) VH: QVQLQQSGPGLVKPSQTLSLTCAISGDSVSSNSATWNWIRQSPSRGLEWLGRTYYRSKWYNDYAVSVKSRIIINPDTSKNQFSLQLNSVTPEDTAVYYCARGVRAFDIWGQGTTVTVSS VL: QSVLTQPPSVSGTPGQRVTIFCSGGSNNIGRSSVYWYRQAAGTAPKLLIYKTDQRPSGVPDRFAASKSGASASLAISGLRSEDEADYHCATWDDSLSAVVFGGGTKLTVL", -1),
]

Problem: Say whether P601-120 (scFv, V domains shown) VH: EVQLVQSGGDLVQPGGSLRLSCAASGFTFSSYSMNWVRQAPGKGLEWVSSISSSSSYIYYADSVKGRFTISRDNAKNSLYLQMNSLRAEDTAVYYCARGLGGWTHDAFDIWGQGTTVTVSS VL: QSALTQPASVSGSPGQSITISCTGTSSDVGGYNYVSWYQQHPGKAPKLMIYDVSNRPSGVSNRFSGSKSGNTASLTISGLQAEDEADYYCSSYTSSSTRVFGGGTKLTVL shows pIC50 of 9 or more.
Result: -1
